Please go through the items and note down their IC50.
test system: Staphylococcus aureus (ATCC 29213); experiment: Antimicrobial activity against S. aureus (growth inhibition, OD 620 nm); format: cell-based; conditions: Staphylococcus aureus, ATCC29213, Assay 2; individual permethylated peptides
One number for each entry, in nM.

1. Cc1onc(-c2ccccc2)c1C(=O)N[C@@H]1C(=O)N2[C@@H]1SC(C)(C)[C@@H]2C(=O)O    370

Read the next record carefully.
Give the measured IC50 for CC[C@H]1OC(=O)[C@H](C)[C@@H](O[C@H]2C[C@@](C)(OC)[C@@H](O)[C@H](C)O2)[C@H](C)[C@@H](O[C@@H]2O[C@H](C)C[C@H](N(C)C)[C@H]2O)[C@](C)(O)C[C@@H](C)C(=O)[C@H](C)[C@@H](O)[C@]1(C)O
134

The reported numbers originate from patent US5846731A.
